- target: Farnesyl pyrophosphate synthase (Homo sapiens)
- Sequence (P14324 whole entry): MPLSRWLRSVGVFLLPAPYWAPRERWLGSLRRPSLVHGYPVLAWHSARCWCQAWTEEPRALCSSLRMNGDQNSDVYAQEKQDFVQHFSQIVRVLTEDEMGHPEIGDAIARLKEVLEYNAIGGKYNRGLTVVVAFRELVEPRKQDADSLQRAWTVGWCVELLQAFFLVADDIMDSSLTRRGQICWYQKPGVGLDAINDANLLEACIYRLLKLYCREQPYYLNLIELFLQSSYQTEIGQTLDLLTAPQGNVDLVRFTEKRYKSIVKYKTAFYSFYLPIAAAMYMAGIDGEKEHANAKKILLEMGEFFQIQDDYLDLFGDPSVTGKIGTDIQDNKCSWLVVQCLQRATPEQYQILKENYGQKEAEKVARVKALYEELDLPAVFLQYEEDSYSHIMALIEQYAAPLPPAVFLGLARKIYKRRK
- protocol.details: Inhibition of recombinant FDPS (unknown origin) assessed as radiolabeled FPP formation preincubated for 10 mins followed by addition of 10 uM GPP substrate and [14C]IPP for 30 mins by liquid scintillation counter analysis
metric: IC50 (µM)
Supply the numeric figure in µM, leaving out any unit text.

Reported IC50, compound CC(C)=CCCn1cc(CC(P(=O)(O)O)P(=O)(O)O)nn1 : ____
6.6

For CC(C)=CCC/C(C)=C/CC(Cc1cn(CCC=C(C)C)nn1)(P(=O)(O)O)P(=O)(O)O , what is its reported IC50?
13

Given CC(C)=CCC/C(C)=C/CCn1cc(CC(P(=O)(O)O)P(=O)(O)O)nn1 , state its recorded IC50.
28
